Data origin, for the record: ChEMBL document CHEMBL1158340

- System: Pseudomonas putida
- Assay Info: Antibacterial activity against Pseudomonas putida MTCC 121 at 10 ug/mL by agar well diffusion method
- Assay type: functional
- Condition Info: read-out: DIZ
Provide the reported zone of inhibition at 10 µg/mL of each item.
Please state the figure in mm; there is no need to write the unit.

Problem: Please indicate recorded zone of inhibition at 10 µg/mL of "Cc1cc2nnc(-c3cccnc3)n2c(C)n1" measured with Pseudomonas putida.
Solution: 36.7

Problem: Look up and report measured zone of inhibition at 10 µg/mL (Pseudomonas putida) for the following compound: "COc1ccc(-c2nnc3cc(C)nc(C)n23)cc1"
Solution: 11.7

Problem: # return zone of inhibition at 10 µg/mL of "O=C(N[C@H](CO)[C@H](O)c1ccc([N+](=O)[O-])cc1)C(Cl)Cl" (system: Pseudomonas putida)
Solution: 29.3

Problem: Supply zone of inhibition at 10 µg/mL measured with Pseudomonas putida for "CN[C@@H]1[C@H](O[C@H]2[C@H](O[C@H]3[C@H](O)[C@@H](O)[C@H](N=C(N)N)[C@@H](O)[C@@H]3N=C(N)N)O[C@@H](C)[C@]2(O)C=O)O[C@@H](CO)[C@H](O)[C@H]1O" .
Solution: 38.2

Problem: Recall the reported zone of inhibition at 10 µg/mL of "Cc1cc2nnc(-c3ccc(Br)cc3)n2c(C)n1" on Pseudomonas putida and write it down.
Solution: 28.3

Problem: Provide Pseudomonas putida zone of inhibition at 10 µg/mL reading for "Cc1cc2nnc(-c3ccc(F)cc3)n2c(C)n1" .
Solution: 9.67

Problem: Answer with zone of inhibition at 10 µg/mL of "Cc1cc2nnc(-c3ccc(Cl)cc3Cl)n2c(C)n1" measured for Pseudomonas putida.
Solution: 29.3

Problem: Would you please give the reported zone of inhibition at 10 µg/mL of "COc1cc(O)ccc1-c1nnc2cc(C)nc(C)n12" with Pseudomonas putida?
Solution: 32.7

Problem: Find zone of inhibition at 10 µg/mL for "Cc1ccc(-c2nnc3cc(C)nc(C)n23)cc1" on Pseudomonas putida and write it down.
Solution: 26.7
